Entry source: patent US10479780B2

Molecular target: human Lck enzyme (Homo sapiens)
Construct: purchased Carna Biosciences, Inc. 08-170
Test: Lck enzyme inhibitory activity (time-resolved fluorometry, biotinylated peptide phosphorylation)
Assay type: biochemical
Settings: read-out: LCK_IC50
Protocol: 3. Lck Enzyme Inhibitory Activity Lck inhibitory activity was determined based on activity of inhibiting phosphorylation reaction of a biotinylated peptide (EGPWLEEEEEAYGWMDF) using a human Lck enzyme (manufactured by Carna Biosciences, Inc., cat 08-170). The phosphorylated biotinylated peptide was detected by time-resolved fluorometry using an anti-phosphorylated tyrosine antibody conjugated to europium cryptate, and streptavidin conjugated to XL665, an allophycocyanin derivative. […]
pIC50: −log10 of the molar value.
Threshold check on pIC50: at or above 8 gives yes, strictly below gives no.

q: # check: pIC50 of Cc1cc2cc(C(=O)c3cnn(-c4cnc(Oc5c(F)cccc5F)cc4C)c3N)[nH]c2cc1NS(=O)(=O)N1C2CCC1COC2 is greater than or equal to 8
a: no

q: Quick one: Cc1cc(Oc2c(F)cccc2F)ncc1-n1ncc(C(=O)c2cc3cc(OCC(F)F)c(NS(=O)(=O)c4cccc(C#N)c4)cc3[nH]2)c1N
a: no

q: Quick one: Cc1cc(-n2ncc(C(=O)c3cc4cc(OC(F)F)c(N)cc4[nH]3)c2N)ccc1Oc1ccccc1F
a: no

q: Quick one: Cc1cc2cc(C(=O)c3cnn(-c4cnc(Oc5c(F)cccc5F)cc4C)c3N)[nH]c2cc1C1CCN(S(C)(=O)=O)CC1
a: yes

q: Quick one: Cc1cc(-n2ncc(C(=O)c3cc4cc(OC5CCN(C(C)C)CC5)c(N5C(=O)N[C@@H](Cc6ccccc6)C5=O)cc4[nH]3)c2N)ccc1Oc1ccccc1F
a: no

q: Quick one: Cc1cc(Oc2c(F)cccc2F)ncc1-n1ncc(C(=O)c2cc3cc(OC4CCN(C(C)C)CC4)c(N4CCC(N5CCOCC5)CC4)cc3[nH]2)c1N
a: yes

q: Quick one: Cc1cc(-n2ncc(C(=O)c3cc4cc(OC(F)F)c(Br)cc4[nH]3)c2N)ccc1Oc1ccccc1F
a: no

q: Quick one: Cc1cc(-n2ncc(C(=O)c3cc4cc(OCC(F)F)c(-c5cncnc5)cc4[nH]3)c2N)ccc1Oc1ccccc1F
a: no

q: Quick one: Cc1cc(-n2ncc(C(=O)c3cc4cc(F)c(NS(C)(=O)=O)cc4[nH]3)c2N)cnc1Oc1ccccc1F
a: no

q: Quick one: Cc1cc(Oc2ccccc2F)ccc1-n1ncc(C(=O)c2cc3cc(F)c(N4C(=O)[C@@H]5C[C@H](NC(=O)OCC6c7ccccc7-c7ccccc76)CN5C4=O)cc3[nH]2)c1N
a: no

q: Quick one: Cc1cc(Oc2ccccc2F)ccc1-n1ncc(C(=O)c2cc3cc(OCC(F)F)c(N4C(=O)[C@@H]5C[C@H](NC(=O)OCC6c7ccccc7-c7ccccc76)CN5C4=O)cc3[nH]2)c1N
a: no

q: Quick one: Cc1cc(Oc2c(F)cccc2F)ncc1-n1ncc(C(=O)c2cc3cc(F)c(NC4CN(S(C)(=O)=O)C4)cc3[nH]2)c1N
a: yes

q: Quick one: Cc1cc(Oc2c(F)cccc2F)ncc1-n1ncc(C(=O)c2cc3cc(C(C)C)c(NS(=O)(=O)CCCF)cc3[nH]2)c1N
a: no

---

Exercise: for every item that follows, state its recorded IC50.
Target: human Src enzyme (Homo sapiens, UniProt P12931)
Construct: purchased Carna Biosciences, Inc. 08-173
Sequence (P12931 whole entry): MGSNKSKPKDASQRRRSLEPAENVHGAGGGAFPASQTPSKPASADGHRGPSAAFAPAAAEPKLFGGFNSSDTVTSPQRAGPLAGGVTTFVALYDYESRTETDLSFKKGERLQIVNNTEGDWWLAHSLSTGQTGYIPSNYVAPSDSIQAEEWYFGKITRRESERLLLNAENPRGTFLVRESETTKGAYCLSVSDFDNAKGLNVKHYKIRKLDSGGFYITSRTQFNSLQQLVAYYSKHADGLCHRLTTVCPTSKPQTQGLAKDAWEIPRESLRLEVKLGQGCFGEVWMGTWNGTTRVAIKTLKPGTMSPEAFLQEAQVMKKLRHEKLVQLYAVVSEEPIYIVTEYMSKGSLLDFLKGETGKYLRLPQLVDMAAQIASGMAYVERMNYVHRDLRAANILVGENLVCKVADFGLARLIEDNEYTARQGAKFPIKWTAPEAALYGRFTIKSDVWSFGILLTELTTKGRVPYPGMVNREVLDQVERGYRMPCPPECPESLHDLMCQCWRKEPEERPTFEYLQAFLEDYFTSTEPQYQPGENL
Assay: Src enzyme inhibitory activity (time-resolved fluorometry, biotinylated peptide phosphorylation)
Assay type: biochemical
Conditions: biotinylated peptide phosphorylation, read-out: SRC_IC50
State the value with its unit after it.

q: For the molecule shown here, Cc1cc(Oc2cccc(F)c2F)ccc1-n1ncc(C(=O)c2cc3cc(Cl)c(NS(C)(=O)=O)cc3[nH]2)c1N , give the reported IC50.
a: 91 nM

q: Quick one: Cc1cc2cc(C(=O)c3cnn(-c4c(C)cc(Oc5cc(F)ccc5F)cc4F)c3N)[nH]c2cc1NS(C)(=O)=O
a: 140 nM

q: Quick one: Cc1cc(Oc2c(F)cccc2F)ncc1-n1ncc(C(=O)c2cc3cc(F)c(N4C(=O)N[C@@H](CO)C4=O)cc3[nH]2)c1N
a: 74 nM

q: Quick one: Cc1cc(Oc2c(F)cccc2F)ncc1-n1ncc(C(=O)c2cc3cc(F)c(NS(=O)(=O)c4cncc(F)c4)cc3[nH]2)c1N
a: 640 nM

q: Quick one: Cc1cc(Oc2ccccc2F)cc(F)c1-n1ncc(C(=O)c2cc3cc(OCC(F)F)c(C4CCN(S(C)(=O)=O)CC4)cc3[nH]2)c1N
a: 19 nM

q: Quick one: Cc1cc2cc(C(=O)c3cnn(-c4c(C)cc(Oc5ccccc5F)cc4F)c3N)[nH]c2cc1NS(=O)(=O)CCCF
a: 140 nM

q: Quick one: Cc1cc2cc(C(=O)c3cnn(-c4cnc(Oc5c(F)cccc5F)cc4C)c3N)[nH]c2cc1N1C(=O)CNC1=O
a: 21 nM

q: Quick one: Cc1cccc(S(=O)(=O)Nc2cc3[nH]c(C(=O)c4cnn(-c5ccc(Oc6ccccc6F)cc5C)c4N)cc3cc2C)n1
a: 200 nM

q: Quick one: Cc1cc2cc(C(=O)c3cnn(-c4cnc(Oc5c(F)cccc5F)cc4C)c3N)[nH]c2cc1NS(=O)(=O)C1CC1
a: 100 nM

q: Quick one: Cc1cc(Oc2ccccc2F)ncc1-n1ncc(C(=O)c2cc3cc(OCC(F)F)c(NS(=O)(=O)c4cccnc4)cc3[nH]2)c1N
a: 95 nM

q: Quick one: Cc1cc(Oc2c(F)cccc2F)ncc1-n1ncc(C(=O)c2cc3cc(C4CC4)c(NS(=O)(=O)CCCF)cc3[nH]2)c1N
a: 170 nM

q: Quick one: Cc1cc2cc(C(=O)c3cnn(-c4cnc(Oc5ccccc5F)cc4C)c3N)[nH]c2cc1NS(=O)(=O)c1cccc(C#N)c1
a: 440 nM

q: Quick one: Cc1cc2cc(C(=O)c3cnn(-c4cnc(Oc5ccccc5F)cc4C)c3N)[nH]c2cc1NS(=O)(=O)c1cncc(F)c1
a: 430 nM

q: Quick one: Cc1cc2[nH]c(C(=O)c3cnn(-c4ccc(Oc5ccccc5F)cc4C)c3N)cc2cc1NS(C)(=O)=O
a: 1.9 nM

q: Quick one: Cc1cc(Oc2ccccc2F)ccc1-n1ncc(C(=O)c2cc3cc(F)c(NS(=O)(=O)c4cc(F)cc(F)c4)cc3[nH]2)c1N
a: 830 nM

q: Quick one: Cc1cc(Oc2ccccc2F)ccc1-n1ncc(C(=O)c2cc3cc(F)c(NS(=O)(=O)CC(=O)N4CCN(C(C)C)CC4)cc3[nH]2)c1N [Example 4-10-003, 2,2,2-trifluoroacetate]
a: 26 nM

q: Quick one: Cc1cc(Oc2ccccc2F)cc(F)c1-n1ncc(C(=O)c2cc3cc(OC(F)F)c(C4CCN(S(C)(=O)=O)CC4)cc3[nH]2)c1N
a: 25 nM

q: Quick one: COc1cc2cc(C(=O)c3cnn(-c4cnc(Oc5ccccc5F)cc4C)c3N)[nH]c2cc1NC(C)=O
a: 33 nM

q: Quick one: COc1cc2cc(C(=O)c3cnn(-c4cnc(Oc5ccccc5F)cc4C)c3N)[nH]c2cc1NS(=O)(=O)CC(=O)N1CCOCC1
a: 17 nM

---

Exercise: for every item that follows, state its recorded pIC50.
Target: human Lck enzyme (Homo sapiens, UniProt P06239)
Construct: purchased Carna Biosciences, Inc. 08-170
Sequence (P06239 whole entry): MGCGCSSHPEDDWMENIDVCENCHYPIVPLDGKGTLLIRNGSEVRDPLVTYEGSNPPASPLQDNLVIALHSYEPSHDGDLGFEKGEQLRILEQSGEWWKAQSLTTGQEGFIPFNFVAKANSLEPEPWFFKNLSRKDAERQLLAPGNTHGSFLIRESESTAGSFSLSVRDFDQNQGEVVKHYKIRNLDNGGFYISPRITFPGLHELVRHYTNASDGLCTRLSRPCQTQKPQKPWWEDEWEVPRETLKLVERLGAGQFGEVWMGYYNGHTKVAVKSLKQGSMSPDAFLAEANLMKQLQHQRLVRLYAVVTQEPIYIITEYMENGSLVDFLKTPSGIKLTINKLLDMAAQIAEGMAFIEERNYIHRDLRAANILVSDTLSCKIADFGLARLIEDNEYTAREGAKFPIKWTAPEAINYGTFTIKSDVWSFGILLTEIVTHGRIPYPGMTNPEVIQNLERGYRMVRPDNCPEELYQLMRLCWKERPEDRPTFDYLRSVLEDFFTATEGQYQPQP
Assay: Lck enzyme inhibitory activity (time-resolved fluorometry, biotinylated peptide phosphorylation)
Format: biochemical
Settings: read-out: LCK_IC50
// returns pIC50 (minus log10 of molar concentration), number only

q: For the compound shown here, Cc1cc(Oc2ccccc2F)ccc1-n1ncc(C(=O)c2cc3cc(F)c(N4CC(C)(C)NS4(=O)=O)cc3[nH]2)c1N [Example 5-1-302] , give the reported pIC50.
a: 7.66

q: Quick one: Cc1cc(Oc2ccccc2F)cc(C)c1-n1ncc(C(=O)c2cc3cc(F)c(NS(=O)(=O)CCCF)cc3[nH]2)c1N [Example 5-1-040]
a: 7.06

q: Quick one: Cc1cc(-n2ncc(C(=O)c3cc4cc(OC5CCN(C(C)C)CC5)c(N5C(=O)N[C@@H](CO)C5=O)cc4[nH]3)c2N)ccc1Oc1ccccc1F [Example 5-1-293]
a: 7.74

q: Quick one: CC(C)N1CCC(c2cc3[nH]c(C(=O)c4cnn(-c5ccc(Oc6cccc(Cl)c6)cc5)c4N)cc3cc2F)CC1 [Example 5-1-008]
a: 8.34

q: Quick one: Cc1cc(Oc2ccccc2F)ccc1-n1ncc(C(=O)c2cc3cc(OCC(F)F)c(N4C(=O)[C@@H]5CCCN5C4=O)cc3[nH]2)c1N [Example 5-1-252]
a: 8.34

q: Quick one: Cc1cc(Oc2ccccc2F)ccc1-n1ncc(C(=O)c2cc3cc(N4CCOCC4)c(N4CCN(S(C)(=O)=O)CC4)cc3[nH]2)c1N [Example 5-1-093]
a: 8.43

---

Target: human Lck enzyme (Homo sapiens)
Construct: purchased Carna Biosciences, Inc. 08-170
Assay: Lck enzyme inhibitory activity (time-resolved fluorometry, biotinylated peptide phosphorylation)
Assay type: biochemical
Settings: biotinylated peptide phosphorylation, read-out: LCK_IC50
Exercise: for every item that follows, state its recorded pIC50.
// returns pIC50 (minus log10 of molar concentration), number only

q: For the compound shown here, COc1cc2cc(C(=O)c3cnn(-c4cnc(Oc5ccccc5F)cc4C)c3N)[nH]c2cc1NC(=O)N1CCOCC1 , give the reported pIC50.
a: 8.10

q: Quick one: Cc1cc(Oc2ccccc2F)ncc1-n1ncc(C(=O)c2cc3cc(F)c(N4CC5(CCOCC5)NS4(=O)=O)cc3[nH]2)c1N
a: 7.77

q: Quick one: Cc1cc(Oc2c(F)cccc2F)ncc1-n1ncc(C(=O)c2cc3cc(OCC(F)F)c(N4C(=O)C(C)(C)NC4=S)cc3[nH]2)c1N
a: 8.19
